Source: the kinase profiling compilation of Christmann-Franck et al. (2016)

- target or test system: CSNK2A2 (human)
- protocol description: radiometric filter-binding kinase assay, Kinase HotSpot
- assay setup: compound 0.5 µM; ATP 10 µM
readout name: residual activity

Some solved cases for reference:
compound	target or test system	readout name	result
CC(C)(C)c1nc2c3ccc(F)cc3c3c(=O)[nH]ccc3c2[nH]1	CSNK2A2 (human)	residual activity	91.5%
CC(C)n1cnc2c(Nc3cccc(Cl)c3)nc(NCCO)nc21	CSNK2A2 (human)	residual activity	91.8%
Cc1ccc(NC(=O)c2ccc(CN3CCN(C)CC3)cc2)cc1Nc1nc(-c2cccnc2)cs1	CSNK2A2 (human)	residual activity	86.7%
COc1cc2nccc(Oc3ccc(NC(=S)NC(=O)c4ccccc4C)cc3)c2cc1OC	CSNK2A2 (human)	residual activity	96.6%
Cc1cc2ncc(-c3ccccc3)nc2cc1C	CSNK2A2 (human)	residual activity	90.3%
O=C1Nc2ccccc2/C1=C\c1c(Cl)[nH]c2ccccc12	CSNK2A2 (human)	residual activity	94.3%
O=C1Cc2c([nH]c3ccc([N+](=O)[O-])cc23)-c2ccccc2N1	CSNK2A2 (human)	residual activity	64.4%
O=c1cc(-c2cccc3c2Sc2ccccc2S3)oc(N2CCOCC2)c1	CSNK2A2 (human)	residual activity	96%
Oc1ccc(-c2nc(-c3ccc(F)cc3)c(-c3ccncc3)[nH]2)cc1	CSNK2A2 (human)	residual activity	95.9%
Nc1nc(Nc2ccc(S(N)(=O)=O)cc2)nn1C(=S)Nc1c(F)cccc1F	CSNK2A2 (human)	residual activity	81.9%

Fill in the recorded residual activity for this compound, with CSNK2A2 (human) as test system: NC(=O)c1ccc(N(C(N)=O)c2c(F)cccc2F)nc1-c1ccc(F)cc1F
109%

Notebook: pull reported residual activity for CSNK2A2 (human), entry O=C(NC(NC(=S)Nc1ccc(F)c([N+](=O)[O-])c1)C(Cl)(Cl)Cl)C(c1ccccc1)c1ccccc1 (centres undefined)
97%
